Data provenance: patent US10710984B2

Target Of Assay: human Orexin 1 receptor (Homo sapiens, UniProt O43613)
Construct: CHO-K1 cells stably expressing the full-length human Orexin 1 receptor and the aequorin photoprotein; expressed in transfected cells; host or cells: CHO-K1 (CHO-K1/hOx1)
Sequence (O43613 whole entry): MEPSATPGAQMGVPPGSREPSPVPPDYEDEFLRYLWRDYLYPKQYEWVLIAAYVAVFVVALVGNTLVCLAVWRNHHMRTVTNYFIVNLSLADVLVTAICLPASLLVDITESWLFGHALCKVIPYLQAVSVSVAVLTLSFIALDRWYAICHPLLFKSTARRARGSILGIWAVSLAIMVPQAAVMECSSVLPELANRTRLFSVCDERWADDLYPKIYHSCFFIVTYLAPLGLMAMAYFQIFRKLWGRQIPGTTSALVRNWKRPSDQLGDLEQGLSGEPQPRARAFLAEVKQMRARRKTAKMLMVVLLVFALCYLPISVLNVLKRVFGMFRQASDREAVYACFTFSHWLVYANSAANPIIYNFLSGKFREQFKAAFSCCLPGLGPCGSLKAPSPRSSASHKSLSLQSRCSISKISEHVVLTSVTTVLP
Experimental Details: Assay A: in vitro testing of OX1R potency, OX1R IP1
Assay type: cell-based
Test Context: Table 4a; 50 nM Orexin A
Endpoint Label: Kb (nM)
Numeric answer only, unit nM assumed.

Please fill in: Kb reported for CCN(C(=O)c1cccc(F)c1-n1nccn1)[C@@H](C)CNc1ncc(C(F)(F)F)cc1F [Example 16] = 0.014

Please fill in: Kb reported for CCN(C(=O)c1c(-n2nccn2)ccc(C)c1F)[C@@H](C)CNc1ncc(C(F)(F)F)cn1 [Example 1] = 0.041

Please fill in: Kb reported for CCN(C(=O)c1nccc(C(F)(F)F)c1-c1ccn(C)n1)[C@@H](C)COc1ccc(C(F)(F)F)cn1 [Example 19] = 0.114

Here's the next entry for you.
Please fill in: Kb reported for CCN(C(=O)c1cccc(F)c1-n1nccn1)[C@@H](C)CNc1ccc(F)c(C(F)(F)F)n1 [Example 18] = 0.078
